# melting point per record follows

compound_string | melting point
CS(=O)(=O)c1ccc(-c2c(-c3ccc(F)cc3)c(OCC(=O)c3ccccc3)nn2CC(=O)c2ccccc2)cc1 | 151 to 152 °C
CCn1nc(OCC(=O)C(C)(C)C)c(-c2ccc(F)cc2)c1-c1ccc(S(N)(=O)=O)cc1 | 196 to 198 °C
CCC(=O)COc1nn(CC(=O)CC)c(-c2ccc(F)cc2)c1-c1ccc(S(C)(=O)=O)cc1 | 56 to 58 °C
